Target: T1, fibroblast activation protein (FAP) on FAP-expressing human WI-38 fibroblasts (human, UniProt Q12884 1-760)
T1 construct: also called human FAP
Assay: competitive FACS, WI-38 cells, vs Cy5 tracer m3; A = pIC50 >8.0
Numbered stars: 1 amine (or outer) side, 2 acyl side, 3 side chain; on linkers, the order of the positions; unused ones are H or OH. Bridge positions count the residues as written; N and C are the ends. Square brackets hold non-standard residues; d marks the D form. mXylylene = c1cc(C[*:1])cc(C[*:2])c1

BINDER	pIC50 Category (FACS)
Ac-MCPPTEFCD[dH]FRD-NH2 (linker 2-8 via mXylylene; SMILES CSCC[C@H](NC(C)=O)C(=O)N[C@H]1CSCc2cccc(c2)CSC[C@@H](C(=O)N[C@@H](CC(=O)O)C(=O)N[C@H](Cc2c[nH]cn2)C(=O)N[C@@H](Cc2ccccc2)C(=O)N[C@@H](CCCNC(=N)N)C(=O)N[C@@H](CC(=O)O)C(N)=O)NC(=O)[C@H](Cc2ccccc2)NC(=O)[C@H](CCC(=O)O)NC(=O)[C@H]([C@@H](C)O)NC(=O)[C@@H]2CCCN2C(=O)[C@@H]2CCCN2C1=O, also called 3BP-3210) [Ac-Met-[Cys(3MeBn)-Pro-Pro-Thr-Glu-Phe-Cys]-Asp-his-Phe-Arg-Asp-NH2]	> 8 pIC50
Ac-MCPPTEFCDH[dF]RD-NH2 (linker 2-8 via mXylylene; SMILES CSCC[C@H](NC(C)=O)C(=O)N[C@H]1CSCc2cccc(c2)CSC[C@@H](C(=O)N[C@@H](CC(=O)O)C(=O)N[C@@H](Cc2c[nH]cn2)C(=O)N[C@H](Cc2ccccc2)C(=O)N[C@@H](CCCNC(=N)N)C(=O)N[C@@H](CC(=O)O)C(N)=O)NC(=O)[C@H](Cc2ccccc2)NC(=O)[C@H](CCC(=O)O)NC(=O)[C@H]([C@@H](C)O)NC(=O)[C@@H]2CCCN2C(=O)[C@@H]2CCCN2C1=O, also called 3BP-3211) [Ac-Met-[Cys(3MeBn)-Pro-Pro-Thr-Glu-Phe-Cys]-Asp-His-phe-Arg-Asp-NH2]	> 8 pIC50

// provenance: patent US20230212549A1
